Attribute: selectivity ratio
Experiment: Selectivity index, ratio of IC50 for human MRC5 cells to IC50 for human U118MG cells
Assay type: toxicity
Conditions: MRC5 cells and U118MG cells, read-out: Ratio IC50
I'd appreciate a reply containing only the number, no unit.

# example entries with known answers
[
  {
    "SMILES_STRING": "O=C(O[C@H]1C[C@H](n2cc(F)c(=O)[nH]c2=O)O[C@@H]1COP(=O)(O)Oc1cccnc1)c1ccccc1",
    "selectivity ratio": 17
  },
  {
    "SMILES_STRING": "CCCCCCCCCc1ccc(OP(=O)(O)OC[C@H]2O[C@@H](n3cc(F)c(=O)[nH]c3=O)C[C@@H]2OC(=O)c2ccccc2)cc1",
    "selectivity ratio": 4
  },
  {
    "SMILES_STRING": "O=c1[nH]c(=O)n([C@H]2C[C@H](O)[C@@H](COP(=O)(O)Oc3ccccc3)O2)cc1F",
    "selectivity ratio": 3
  },
  {
    "SMILES_STRING": "O=C(O[C@H]1C[C@H](n2cc(F)c(=O)[nH]c2=O)O[C@@H]1COP(=O)(O)Oc1ccc2ncccc2c1)c1ccccc1",
    "selectivity ratio": 2
  }
]

Now look at this one.
Request: Quick one: selectivity ratio of CCOC(=O)C[n+]1cccc2cc(OP(=O)([O-])OC[C@H]3O[C@@H](n4cc(F)c(=O)[nH]c4=O)C[C@@H]3OC(=O)c3ccccc3)ccc21 ?
Result: 46

---

Test: Stability in RPMI cell culture media at 2 mM by HPLC analysis
Assay type: physicochemical
Conditions: 2000 µM
PROPERTY_NAME: Stability

[
  {
    "SMILES_STRING": "C[n+]1cccc(OP(=O)([O-])OC[C@H]2O[C@@H](n3cc(F)c(=O)[nH]c3=O)C[C@@H]2OC(=O)c2ccccc2)c1",
    "PROPERTY_NAME": "Stability",
    "REPORTED": "Stable"
  },
  {
    "SMILES_STRING": "CCCCCCCCCc1ccc(OP(=O)(O)OC[C@H]2O[C@@H](n3cc(F)c(=O)[nH]c3=O)C[C@@H]2OC(=O)c2ccccc2)cc1",
    "PROPERTY_NAME": "Stability",
    "REPORTED": "Stable"
  },
  {
    "SMILES_STRING": "C[N+](C)(CCOP(=O)([O-])OC[C@H]1O[C@@H](n2cc(F)c(=O)[nH]c2=O)C[C@@H]1OC(=O)c1ccccc1)Cc1ccccc1",
    "PROPERTY_NAME": "Stability",
    "REPORTED": "Stable"
  },
  {
    "SMILES_STRING": "O=C(O[C@H]1C[C@H](n2cc(F)c(=O)[nH]c2=O)O[C@@H]1COP(=O)(O)Oc1cccnc1)c1ccccc1",
    "PROPERTY_NAME": "Stability",
    "REPORTED": "Stable"
  }
]

---

Test: Half life in RPMI/FBS cell culture media 9:1 (v/v) at 2 mM by HPLC analysis
Assay type: physicochemical
Details: cattle
PROPERTY_NAME: half-life at 2000 µM (h)
I only need the number, in h, no unit after it.

# example entries with known answers
[
  {
    "SMILES_STRING": "C[N+](C)(CCOP(=O)([O-])OC[C@H]1O[C@@H](n2cc(F)c(=O)[nH]c2=O)C[C@@H]1OC(=O)c1ccccc1)Cc1ccccc1",
    "REPORTED": 54
  },
  {
    "SMILES_STRING": "O=c1[nH]c(=O)n([C@H]2C[C@H](O)[C@@H](COP(=O)(O)Oc3ccc4ncccc4c3)O2)cc1F",
    "REPORTED": 26
  },
  {
    "SMILES_STRING": "CCCCCCCCCC[n+]1cccc(OP(=O)([O-])OC[C@H]2O[C@@H](n3cc(F)c(=O)[nH]c3=O)C[C@@H]2OC(=O)c2ccccc2)c1",
    "REPORTED": 16.5
  },
  {
    "SMILES_STRING": "O=C(O[C@H]1C[C@H](n2cc(F)c(=O)[nH]c2=O)O[C@@H]1COP(=O)(O)Oc1ccc2ncccc2c1)c1ccccc1",
    "REPORTED": 7.7
  },
  {
    "SMILES_STRING": "CCOC(=O)C[n+]1cccc2cc(OP(=O)([O-])OC[C@H]3O[C@@H](n4cc(F)c(=O)[nH]c4=O)C[C@@H]3OC(=O)c3ccccc3)ccc21",
    "REPORTED": 2
  },
  {
    "SMILES_STRING": "O=c1[nH]c(=O)n([C@H]2C[C@H](O)[C@@H](COP(=O)(O)Oc3ccccc3)O2)cc1F",
    "REPORTED": 28
  }
]

Request: Quick one: half-life at 2000 µM of C[n+]1cccc(OP(=O)([O-])OC[C@H]2O[C@@H](n3cc(F)c(=O)[nH]c3=O)C[C@@H]2OC(=O)c2ccccc2)c1 ?
Result: 14.8

---

Attribute: selectivity ratio
Assay: Selectivity index, ratio of IC50 for human MRC5 cells to IC50 for human T98G cells
Type: toxicity
Settings: MRC5 cells and T98G cells, read-out: Ratio IC50
I'd appreciate a reply containing only the number, no unit.

[
  {
    "COMPOUND": "CCCCCCCCCc1ccc(OP(=O)(O)OC[C@H]2O[C@@H](n3cc(F)c(=O)[nH]c3=O)C[C@@H]2OC(=O)c2ccccc2)cc1",
    "selectivity ratio": 6
  },
  {
    "COMPOUND": "O=C(O[C@H]1C[C@H](n2cc(F)c(=O)[nH]c2=O)O[C@@H]1COP(=O)([O-])Oc1ccc[n+](Cc2ccccc2)c1)c1ccccc1",
    "selectivity ratio": 15
  },
  {
    "COMPOUND": "CCOC(=O)C[n+]1cccc(OP(=O)([O-])OC[C@H]2O[C@@H](n3cc(F)c(=O)[nH]c3=O)C[C@@H]2OC(=O)c2ccccc2)c1",
    "selectivity ratio": 5
  },
  {
    "COMPOUND": "CCCCCCCCCC[n+]1cccc(OP(=O)([O-])OC[C@H]2O[C@@H](n3cc(F)c(=O)[nH]c3=O)C[C@@H]2OC(=O)c2ccccc2)c1",
    "selectivity ratio": 35
  },
  {
    "COMPOUND": "O=C(O[C@H]1C[C@H](n2cc(F)c(=O)[nH]c2=O)O[C@@H]1COP(=O)(O)Oc1ccc2ncccc2c1)c1ccccc1",
    "selectivity ratio": 1
  }
]

Request: Quick one: selectivity ratio of O=c1[nH]c(=O)n([C@H]2C[C@H](O)[C@@H](COP(=O)(O)Oc3cccnc3)O2)cc1F ?
Result: 7

Request: And what about the compound O=C(O[C@H]1C[C@H](n2cc(F)c(=O)[nH]c2=O)O[C@@H]1COP(=O)(O)Oc1cccnc1)c1ccccc1 ?
Result: 12

Request: And what about the compound C[N+]1(C)CCC(OP(=O)([O-])OC[C@H]2O[C@@H](n3cc(F)c(=O)[nH]c3=O)C[C@@H]2OC(=O)c2ccccc2)CC1 ?
Result: 1

Request: And what about the compound C[n+]1cccc(OP(=O)([O-])OC[C@H]2O[C@@H](n3cc(F)c(=O)[nH]c3=O)C[C@@H]2OC(=O)c2ccccc2)c1 ?
Result: 2

Request: And what about the compound O=c1[nH]c(=O)n([C@H]2C[C@H](O)[C@@H](COP(=O)(O)Oc3ccccc3)O2)cc1F ?
Result: 1

Request: And what about the compound C[N+]1(Cc2ccccc2)C2CCC1CC(OP(=O)([O-])OC[C@H]1O[C@@H](n3cc(F)c(=O)[nH]c3=O)C[C@@H]1OC(=O)c1ccccc1)C2 (stereo partly specified) ?
Result: 1

Request: And what about the compound O=C(O[C@H]1C[C@H](n2cc(F)c(=O)[nH]c2=O)O[C@@H]1COP(=O)(O)Oc1ccccc1)c1ccccc1 ?
Result: 2

Request: And what about the compound CCOC(=O)C[n+]1cccc2cc(OP(=O)([O-])OC[C@H]3O[C@@H](n4cc(F)c(=O)[nH]c4=O)C[C@@H]3OC(=O)c3ccccc3)ccc21 ?
Result: 3

---

Attribute: IC50
Tested on: HeLa
Assay: Cytostatic activity against human HeLa cells assessed as reduction in cell viability after 48 hrs by MTT assay
Type: functional, cell-based
I only need the number, in µM, no unit after it.

# example entries with known answers
[
  {
    "SMILES_STRING": "C[n+]1cccc(OP(=O)([O-])OC[C@H]2O[C@@H](n3cc(F)c(=O)[nH]c3=O)C[C@@H]2OC(=O)c2ccccc2)c1",
    "IC50 (µM)": 1.26
  },
  {
    "SMILES_STRING": "O=C(O[C@H]1C[C@H](n2cc(F)c(=O)[nH]c2=O)O[C@@H]1COP(=O)(O)Oc1ccccc1)c1ccccc1",
    "IC50 (µM)": 5.86
  }
]

Now look at this one.
Request: Quick one: IC50 of O=c1[nH]c(=O)n([C@H]2C[C@H](O)[C@@H](COP(=O)(O)Oc3ccccc3)O2)cc1F ?
Result: 15.2
